All figures here come from paper PMC3277886.

// reported Ki for each item listed
Biological target: human 5-HT3AR (Homo sapiens)
Construct: expressed in transfected cells
Assay: competition binding studies with [3H]granisetron
Details: human 5-HT3AR; competition with [3H]granisetron; read-out: Ki (nM) mean ± SEM
Protocol: The photophysical properties of fluorescent granisetron derivatives were measured in MeOH and/or phosphate buffer at pH 7 (Table 1). […]. […] The binding affinities of the fluorescent granisetron probes for the human 5-HT3AR were determined by competition binding studies with [^3H]granisetron. […]. […] (5) Radioligand binding and fluorescence microscopy […]
The figure you give is taken to be in nM; do not add the unit.

Solved entries (count: 6):
Kindly indicate its recorded Ki. Item: CN1C2CCCC1CC(NC(=O)c1nn(CCOCCOCCNC(=S)Nc3ccc(-c4c5ccc(=O)cc-5oc5cc(O)ccc45)c(C(=O)O)c3)c3ccccc13)C2 (stereo not drawn) [Probe 21]
6300

Read off the recorded Ki for CCN(CC)c1ccc2cc(C(=O)NCCOCCOCCn3nc(C(=O)NC4CC5CCCC(C4)N5C)c4ccccc43)c(=O)oc2c1 (stereo not drawn) [Probe 20]
142

Identify the reported Ki for the following entry. CCN(CC)c1ccc2cc(C(=O)NCCCCn3nc(C(=O)NC4CC5CCCC(C4)N5C)c4ccccc43)c(=O)oc2c1 (stereo not drawn) [Probe 17]
7.3

Please supply the value of reported Ki for the item CCN(CC)c1ccc2cc(C(=O)NCCOCCOCCOc3cccc4c(C(=O)N[C@@H]5C[C@H]6CCC[C@@H](C5)N6C)nn(C)c34)c(=O)oc2c1 [Probe 38]
1300

Give the reported Ki for this compound. CN(C)c1cccc2c(S(=O)(=O)NCCCn3nc(C(=O)N[C@H]4C[C@H]5CCC[C@@H](C4)N5C)c4ccccc43)cccc12 [Probe 27]
1.2

Query Ki for CN1C2CCCC1CC(NC(=O)c1nn(CCCNc3ccc([N+](=O)[O-])c4nonc34)c3ccccc13)C2 (stereo not drawn) [Probe 26]
8.7

***
State its Ki for this compound: CN1C2CCCC1CC(NC(=O)c1nn(CCCNC(=S)Nc3ccc(-c4c5ccc(=O)cc-5oc5cc(O)ccc45)c(C(=O)O)c3)c3ccccc13)C2 (stereo not drawn) [Probe 16]
1.6

Tell me Ki reported for CCN(CC)c1ccc2c(-c3ccc(NC(=S)NCCOCCOCCn4nc(C(=O)NC5CC6CCCC(C5)N6C)c5ccccc54)cc3C(=O)[O-])c3ccc(=[N+](CC)CC)cc-3oc2c1 (stereo not drawn) [Probe 22]
384

State its Ki: CC1=CC(C)=[N+]2C1=C(CCCOC(=O)CCCn1nc(C(=O)NC3CC4CCCC(C3)N4C)c3ccccc31)c1c(C)cc(C)n1[B-]2(F)F (stereo not drawn) [Probe 28]
1.6

====

target: human 5-HT3AR (Homo sapiens); construct: expressed in transfected cells; test: competition binding studies with [3H]granisetron
measured.parameter: Ki

Consider the reported Ki for these compounds:
Lab note: record Ki of CN1[C@@H]2CCC[C@H]1C[C@@H](NC(=O)c1nn(C)c3c(OCCOCCOCCNC(=S)Nc4ccc(-c5c6ccc(=O)cc-6oc6cc(O)ccc56)c(C(=O)O)c4)cccc13)C2 [Probe 39] tested on human 5-HT3AR (Homo sapiens).
208 nM

Report Ki from human 5-HT3AR (Homo sapiens) testing of CCN(CC)c1ccc2cc(C(=O)NCCCOc3cccc4c(C(=O)N[C@H]5C[C@H]6CCC[C@@H](C5)N6C)nn(C)c34)c(=O)oc2c1 [Probe 37]
157 nM

New cases:
Retrieve Ki on human 5-HT3AR (Homo sapiens); query COc1ccc(C2=[N+]3C(=Cc4c(C)c(CCC(=O)NCCCCCC(=O)NCCCn5nc(C(=O)NC6CC7CCCC(C6)N7C)c6ccccc65)c(C)n4[B-]3(F)F)C=C2)cc1 (stereo not drawn) [Probe 14]
0.9 nM

====

Ki reference
Target: human 5-HT3AR (Homo sapiens, UniProt P46098)
Construct: expressed in transfected cells
Sequence (P46098 24-478): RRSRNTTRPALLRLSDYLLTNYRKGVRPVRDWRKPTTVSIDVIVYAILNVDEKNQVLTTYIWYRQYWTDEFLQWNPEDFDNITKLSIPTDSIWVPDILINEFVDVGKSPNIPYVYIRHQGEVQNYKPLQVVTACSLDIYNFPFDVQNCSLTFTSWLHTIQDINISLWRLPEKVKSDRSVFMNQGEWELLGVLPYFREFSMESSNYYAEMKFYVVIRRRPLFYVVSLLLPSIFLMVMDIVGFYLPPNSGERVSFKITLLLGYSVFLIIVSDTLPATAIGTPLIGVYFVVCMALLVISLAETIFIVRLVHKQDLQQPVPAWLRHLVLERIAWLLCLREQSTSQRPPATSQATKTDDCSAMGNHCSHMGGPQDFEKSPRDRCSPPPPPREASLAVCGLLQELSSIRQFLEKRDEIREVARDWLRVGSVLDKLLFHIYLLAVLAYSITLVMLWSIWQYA
Test: competition binding studies with [3H]granisetron
Protocol: The photophysical properties of fluorescent granisetron derivatives were measured in MeOH and/or phosphate buffer at pH 7 (Table 1). […]. […] The binding affinities of the fluorescent granisetron probes for the human 5-HT3AR were determined by competition binding studies with [^3H]granisetron. […]. […] (5) Radioligand binding and fluorescence microscopy […]

Recall and state the measured Ki for CN1C2CCCC1CC(NC(=O)c1nn(CCCCNC(=S)Nc3ccc(-c4c5ccc(=O)cc-5oc5cc(O)ccc45)c(C(=O)O)c3)c3ccccc13)C2 (stereo not drawn) [Probe 18] .
1.1 nM

Name the recorded Ki of the compound listed here: CCN(CC)c1ccc2cc(C(=O)NCCCn3nc(C(=O)NC4CC5CCCC(C4)N5C)c4ccccc43)c(=O)oc2c1 (stereo not drawn) [Probe 15]
199 nM

New cases:
Return the recorded Ki value; entry: CCN(CC)c1ccc2cc(C(=O)NCCOc3cccc4c(C(=O)NC5CC6CCCC(C5)N6C)nn(C)c34)c(=O)oc2c1 (stereo not drawn) [Probe 36]
1.9 nM
